# tgt: Met (phospho-Met, HGF-stimulated PC-3 prostate cancer cells) (Homo sapiens (Human), UniProt P08581)
# Sequence (P08581 25-1390): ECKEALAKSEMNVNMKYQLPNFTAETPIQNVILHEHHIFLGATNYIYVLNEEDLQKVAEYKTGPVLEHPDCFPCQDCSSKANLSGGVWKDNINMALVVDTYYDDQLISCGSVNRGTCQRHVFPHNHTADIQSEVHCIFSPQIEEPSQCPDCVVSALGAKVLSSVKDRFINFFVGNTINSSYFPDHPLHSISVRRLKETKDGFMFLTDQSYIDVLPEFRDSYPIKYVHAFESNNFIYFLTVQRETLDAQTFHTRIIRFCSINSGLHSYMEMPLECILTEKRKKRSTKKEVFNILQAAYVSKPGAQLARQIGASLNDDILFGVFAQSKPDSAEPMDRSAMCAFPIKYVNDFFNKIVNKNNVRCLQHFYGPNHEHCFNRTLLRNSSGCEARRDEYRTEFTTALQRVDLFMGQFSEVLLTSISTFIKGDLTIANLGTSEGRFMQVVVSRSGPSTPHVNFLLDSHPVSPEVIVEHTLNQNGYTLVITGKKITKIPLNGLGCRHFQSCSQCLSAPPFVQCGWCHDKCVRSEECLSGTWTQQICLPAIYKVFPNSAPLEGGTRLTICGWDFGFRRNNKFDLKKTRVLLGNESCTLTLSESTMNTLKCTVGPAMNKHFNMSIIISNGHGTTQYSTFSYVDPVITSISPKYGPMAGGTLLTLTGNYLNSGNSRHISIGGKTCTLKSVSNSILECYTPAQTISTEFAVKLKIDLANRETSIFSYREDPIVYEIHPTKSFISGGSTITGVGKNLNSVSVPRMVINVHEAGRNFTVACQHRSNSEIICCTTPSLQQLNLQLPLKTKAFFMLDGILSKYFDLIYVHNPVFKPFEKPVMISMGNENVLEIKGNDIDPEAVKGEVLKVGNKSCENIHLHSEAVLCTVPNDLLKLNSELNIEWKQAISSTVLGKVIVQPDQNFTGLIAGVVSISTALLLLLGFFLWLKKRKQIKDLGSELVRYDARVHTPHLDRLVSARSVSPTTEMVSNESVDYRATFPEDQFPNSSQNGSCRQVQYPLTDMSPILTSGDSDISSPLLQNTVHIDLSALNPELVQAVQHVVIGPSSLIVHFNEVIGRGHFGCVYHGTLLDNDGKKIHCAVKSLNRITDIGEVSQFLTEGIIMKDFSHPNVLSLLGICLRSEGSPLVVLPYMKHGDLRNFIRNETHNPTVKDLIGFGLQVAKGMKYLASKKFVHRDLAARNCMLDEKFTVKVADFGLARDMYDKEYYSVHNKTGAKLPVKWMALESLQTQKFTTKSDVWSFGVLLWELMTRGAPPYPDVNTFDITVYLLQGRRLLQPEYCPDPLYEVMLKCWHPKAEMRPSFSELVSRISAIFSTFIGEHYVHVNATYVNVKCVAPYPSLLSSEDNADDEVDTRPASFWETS
# protocol: Met autophosphorylation ELISA in PC-3 cells (Example F)
# Format: cell-based
# conditions.used: cellular activity, PC-3 cells; read-out: c-Met IC50
Consider the following compounds; for each one, report its IC50.

compound	IC50
COc1cnc2c(Oc3ccc(NC(=O)c4c(C)n(CCF)cc(-c5ccc(F)c(F)c5)c4=O)cc3F)ccnc2c1 [Compound 807]	100 to 300 nM
COc1cnc2c(Oc3ccc(NC(=O)c4c(C)n(C)c(C)c(-c5ccc(F)cc5OC)c4=O)cc3F)ccnc2c1 [Compound 818]	< 100 nM
COc1cnc2c(Oc3ccc(NC(=O)c4c(C)n(CC(F)F)cc(-c5ccc(F)cc5OC)c4=O)cc3F)ccnc2c1 [Compound 811]	< 100 nM
COc1cnc2c(Oc3ccc(NC(=O)c4c(C)n(C)c(C)c(-c5ccc(F)c(C)c5)c4=O)cc3F)ccnc2c1 [Compound 819]	< 100 nM
COc1cc2nccc(Oc3ccc(NC(=O)c4c(C)n(CCF)cc(-c5ccc(F)c(C)c5)c4=O)cc3F)c2nc1OC [Compound 806]	< 100 nM
COc1cc2nccc(Oc3ccc(NC(=O)c4c(C)n(C)c(C)c(-c5ccc(F)c(F)c5)c4=O)cc3F)c2nc1OC [Compound 822]	< 100 nM

Then this compound:
Which IC50 reading was recorded for the compound COc1cnc2c(Oc3ccc(NC(=O)c4c(C)n(C)c(C)c(-c5ccc(F)c(F)c5)c4=O)cc3F)ccnc2c1 [Compound 820] ? < 100 nM

###

Consider the following compounds; for each one, report its IC50.
# tgt: Human MET (residues 956-1390) (Homo sapiens (Human))
# Sequence (P08581 956-1390): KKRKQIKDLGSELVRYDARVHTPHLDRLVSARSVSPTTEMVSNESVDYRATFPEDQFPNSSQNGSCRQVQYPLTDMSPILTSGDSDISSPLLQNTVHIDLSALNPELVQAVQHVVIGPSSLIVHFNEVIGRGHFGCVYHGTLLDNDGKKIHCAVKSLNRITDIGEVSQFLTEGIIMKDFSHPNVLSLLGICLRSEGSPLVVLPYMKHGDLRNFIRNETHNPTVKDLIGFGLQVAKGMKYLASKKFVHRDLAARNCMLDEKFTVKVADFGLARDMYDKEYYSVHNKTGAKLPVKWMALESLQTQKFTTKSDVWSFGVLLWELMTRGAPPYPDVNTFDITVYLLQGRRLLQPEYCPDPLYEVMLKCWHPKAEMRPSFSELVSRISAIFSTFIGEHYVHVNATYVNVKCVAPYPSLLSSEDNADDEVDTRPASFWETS
# protocol: Human Met kinase assay, HTRF KinEase (Example D-2)
# Format: biochemical
# conditions.used: protocol of Example D-2 (other compounds); read-out: c-Met IC50
Counter-ions that a name gives are not always drawn.

compound	reported.measurement
CNC(=O)c1cc2c(Oc3ccc(NC(=O)c4c5n(cc(-c6ccc(F)cc6)c4=O)CCC5)cc3F)ccnc2cc1OC [Compound 408]	< 100 nM
COc1cnc2c(Oc3ccc(NC(=O)c4cn(C)cc(-c5ccccc5)c4=O)cc3F)ccnc2c1 [Compound 40, hydrochloride]	< 100 nM
COc1cc2nccc(Oc3ccc(NC(=O)c4c5n(cc(-c6ccc(F)cc6)c4=O)CCC5)cc3F)c2cc1OC [Compound 409]	< 100 nM

List the reported IC50 of each compound below.
1. COc1cc2nccc(Oc3ccc(NC(=O)c4nn(C)c(C)c(-c5ccc(F)cc5)c4=O)cc3)c2nc1OC [Compound 91]
2. COc1cnc2c(Oc3ccc(NC(=O)c4cnc(C)c(-c5ccc(F)cc5)c4O)cc3)ccnc2c1 [Compound 147]
3. COc1nc2c(Oc3ccc(NC(=O)c4c(C)nc(C)c(-c5ccc(F)cc5)c4O)cc3F)ccnc2cc1O [Compound 431]
4. COc1cc2nccc(Oc3ccc(NC(=O)c4ccc(C)n(-c5ccc(F)cc5C)c4=O)cc3F)c2nc1OC [Compound 219]
5. COc1cc2nccc(Oc3ccc(NC(=O)c4cn(-c5cnn(C)c5)c(C)c(-c5ccc(F)cc5)c4=O)cc3F)c2nc1OC [Compound 140]
6. COc1cc2nccc(Oc3ccc(NC(=O)c4cnc(C)c(-c5ccc(F)cc5C)c4O)cc3F)c2nc1OC(C)C [Compound 416]
7. COc1cnc2c(Oc3ccc(NC(=O)c4cn(C)cc(-c5ccc(F)cc5)c4=O)cc3F)ccnc2c1 [Compound 112]
8. Cc1ccc(C(=O)Nc2ccc(Oc3ccnc4cc(OCc5ccccc5)cnc34)c(F)c2)c(=O)n1-c1ccc(F)cc1 [Compound 275]

1: < 100 nM; 2: < 100 nM; 3: < 100 nM; 4: < 100 nM; 5: < 100 nM; 6: < 100 nM; 7: < 100 nM; 8: 100 to 300 nM

List the reported IC50 of each compound below.
1. COc1ccc2nccc(Oc3ccc(NC(=O)c4c(C)ccn(-c5ccc(F)cc5)c4=O)cc3F)c2n1 [Compound 287]
2. COc1ccc2nccc(Oc3ccc(NC(=O)c4c(C)n(C)cc(-c5ccc(F)cc5)c4=O)cc3F)c2n1 [Compound 243]
3. Cc1ncc(C(=O)Nc2ccc(Oc3ccnc4cc(F)cnc34)c(F)c2)c(O)c1-c1ccc(F)cc1 [Compound 160]

1: 100 to 300 nM; 2: > 300 nM; 3: < 100 nM

###

# tgt: Met (phospho-Met, HGF-stimulated PC-3 prostate cancer cells) (Homo sapiens (Human))
# protocol: Met autophosphorylation ELISA in PC-3 cells (Example F)
# Assay type: cell-based
# conditions.used: cellular activity; Met autophosphorylation ELISA in PC-3 cells; read-out: c-Met IC50
Counter-ions that a name gives are not always drawn.
property.measured: IC50

Worked examples follow.
molecule	IC50
C=C(C)c1cnc2c(Oc3ccc(NC(=O)c4c(C)nc(C)n(-c5ccc(F)cc5)c4=O)cc3F)ccnc2c1	< 100 nM
C=C(C)c1cnc2c(Oc3ccc(NC(=O)c4cnc(C)c(-c5ccc(F)cc5)c4O)cc3F)ccnc2c1	< 100 nM
COc1cc2nccc(Oc3ccc(NC(=O)c4cn(C(C)(C)C)cc(-c5ccc(F)cc5)c4=O)cc3F)c2nc1OC	< 100 nM
COc1cc2nccc(Oc3ccc(NC(=O)c4cn(N(C)C)cc(-c5ccc(F)cc5)c4=O)cc3F)c2nc1OC	< 100 nM
COc1cnc2c(Oc3ccc(NC(=O)c4cc(C)nn(-c5ccc(F)cc5)c4=O)cc3F)ccnc2c1	100 to 300 nM
COc1cc2nccc(Oc3ccc(NC(=O)c4cn(CCO)c(CO)c(-c5ccc(F)cc5C)c4=O)cc3F)c2nc1OC	< 100 nM
COc1cnc2c(Oc3ccc(NC(=O)c4cnc(C(F)(F)F)c(-c5ccc(F)cc5)c4O)cc3F)ccnc2c1	< 100 nM
CCc1nc(C)c(-c2ccc(F)cc2C)c(O)c1C(=O)Nc1ccc(Oc2ccnc3cc(OC)cnc23)cc1	< 100 nM

List the reported IC50 of each molecule below.
1. COc1cc2nccc(Oc3ccc(NC(=O)c4cn(C(C)C)c(C)c(-c5ccc(F)cc5C)c4=O)cc3F)c2nc1OC [Compound 32, hydrochloride]
2. CCn1cc(C(=O)Nc2ccc(Oc3ccnc4cc(OC)c(OC)nc34)c(F)c2)c(=O)c(-c2ccc(F)cc2)c1CF
3. COc1cnc2c(Oc3ccc(NC(=O)c4cn(C)c(C#N)c(-c5ccc(F)cc5)c4=O)cc3F)ccnc2c1
4. COc1cc2nccc(Oc3ccc(NC(=O)c4c(C)ncc(-c5ccc(F)c(F)c5)c4O)cc3F)c2nc1OC
5. COc1cc2nccc(Oc3ccc(NC(=O)c4cn(N=C(N(C)C)N(C)C)cc(-c5ccc(F)cc5)c4=O)cc3F)c2nc1OC

["< 100 nM", "< 100 nM", "100 to 300 nM", "< 100 nM", "< 100 nM"]

List the reported IC50 of each molecule below.
1. CCOc1ccn(-c2ccc(F)cc2)c(=O)c1C(=O)Nc1ccc(Oc2ccnc3cc(OC)c(OC)nc23)c(F)c1
2. Cc1ncc(C(=O)Nc2ccc(Oc3ccnc4cc(C(F)(F)F)cnc34)c(F)c2)c(O)c1-c1ccc(F)cc1
3. COc1cc2nccc(Oc3ccc(NC(=O)c4n[nH]c(C)c(-c5ccc(F)cc5)c4=O)cc3)c2nc1OC
4. COc1cnc2c(Oc3ccc(NC(=O)c4cnc(C)c(-c5ccc(F)cc5C)c4O)cc3)ccnc2c1
5. COc1cnc2c(Oc3ccc(NC(=O)c4c(C)nc(C)c(-c5ccc(F)c(F)c5)c4O)cc3F)ccnc2c1
6. COc1nc2c(Oc3ccc(NC(=O)c4cn(C(C)C)cc(-c5ccc(F)cc5)c4=O)cc3F)ccnc2cc1-c1cnn(C(F)F)c1

1: < 100 nM; 2: < 100 nM; 3: < 100 nM; 4: < 100 nM; 5: < 100 nM; 6: < 100 nM

###

# tgt: KDR (phospho-KDR, VEGF165-stimulated HUVEC cells) (Homo sapiens (Human))
# Sequence (P35968 20-1356): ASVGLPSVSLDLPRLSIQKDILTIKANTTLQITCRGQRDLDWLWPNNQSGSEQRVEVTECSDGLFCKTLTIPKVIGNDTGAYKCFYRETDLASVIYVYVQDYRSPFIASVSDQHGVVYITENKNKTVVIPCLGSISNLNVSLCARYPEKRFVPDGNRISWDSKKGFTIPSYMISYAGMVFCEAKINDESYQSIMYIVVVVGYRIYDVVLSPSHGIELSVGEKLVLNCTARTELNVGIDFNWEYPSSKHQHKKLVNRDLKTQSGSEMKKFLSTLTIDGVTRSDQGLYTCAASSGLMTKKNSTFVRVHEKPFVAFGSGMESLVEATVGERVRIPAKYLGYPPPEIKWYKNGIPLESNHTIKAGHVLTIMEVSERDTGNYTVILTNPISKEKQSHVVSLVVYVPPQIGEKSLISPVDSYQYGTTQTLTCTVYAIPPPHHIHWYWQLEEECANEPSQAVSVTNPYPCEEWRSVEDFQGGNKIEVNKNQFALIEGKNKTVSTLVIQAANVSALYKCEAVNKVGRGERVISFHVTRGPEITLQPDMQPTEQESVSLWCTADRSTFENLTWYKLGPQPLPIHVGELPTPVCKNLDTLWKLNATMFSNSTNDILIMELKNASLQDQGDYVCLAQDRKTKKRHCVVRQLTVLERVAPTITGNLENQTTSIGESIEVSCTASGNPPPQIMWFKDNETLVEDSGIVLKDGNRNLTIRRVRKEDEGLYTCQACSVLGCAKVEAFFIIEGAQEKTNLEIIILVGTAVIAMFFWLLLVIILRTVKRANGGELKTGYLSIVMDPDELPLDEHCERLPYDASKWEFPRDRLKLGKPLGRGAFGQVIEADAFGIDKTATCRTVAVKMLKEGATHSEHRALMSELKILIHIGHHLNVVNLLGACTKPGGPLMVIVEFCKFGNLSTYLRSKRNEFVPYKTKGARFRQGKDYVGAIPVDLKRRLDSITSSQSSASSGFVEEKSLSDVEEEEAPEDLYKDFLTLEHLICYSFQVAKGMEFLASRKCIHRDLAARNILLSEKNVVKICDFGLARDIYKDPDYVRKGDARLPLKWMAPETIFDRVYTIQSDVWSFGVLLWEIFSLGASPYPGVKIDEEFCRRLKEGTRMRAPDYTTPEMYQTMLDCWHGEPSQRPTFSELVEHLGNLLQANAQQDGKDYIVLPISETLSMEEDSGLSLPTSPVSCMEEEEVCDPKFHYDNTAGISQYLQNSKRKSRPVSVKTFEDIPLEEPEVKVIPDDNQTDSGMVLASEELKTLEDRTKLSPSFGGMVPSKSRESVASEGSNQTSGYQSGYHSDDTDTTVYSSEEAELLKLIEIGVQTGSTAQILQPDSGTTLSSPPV
# protocol: KDR autophosphorylation ELISA in HUVEC cells (Example G)
# Type: cell-based
# conditions.used: cellular activity; KDR autophosphorylation ELISA in HUVEC cells
pIC50: −log10 of the molar value.
property.measured: pIC50

Worked examples follow.
compound	tgt	pIC50
COc1cc2nccc(Oc3ccc(NC(=O)c4c(C)c(C)cn(-c5ccc(F)cc5)c4=O)cc3)c2nc1OC [Compound 680]	KDR (phospho-KDR, VEGF165-stimulated HUVEC cells) (Homo sapiens (Human))	> 7.00
COc1cc2nccc(Oc3ccc(NC(=O)c4cn(C(C)C)cc(-c5ccc(F)cc5)c4=O)cc3F)c2nc1OC [Compound 44]	KDR (phospho-KDR, VEGF165-stimulated HUVEC cells) (Homo sapiens (Human))	6.52 to 7.00
COc1cc2nccc(Oc3ccc(NC(=O)c4c(C)nc(C)c(-c5ccc(F)cc5C)c4O)cc3F)c2nc1OC [Compound 177]	KDR (phospho-KDR, VEGF165-stimulated HUVEC cells) (Homo sapiens (Human))	> 7.00
COc1cc2nccc(Oc3ccc(NC(=O)C4=C5CCCN5CC(c5ccc(F)cc5)C4=O)cc3F)c2nc1OC (single isomer, unassigned; enantiomer 1) [Compound 374]	KDR (phospho-KDR, VEGF165-stimulated HUVEC cells) (Homo sapiens (Human))	< 6.52
COCCOc1nc2c(Oc3ccc(NC(=O)c4cnc(C)c(-c5ccc(F)cc5)c4O)cc3)ccnc2cc1C [Compound 437]	KDR (phospho-KDR, VEGF165-stimulated HUVEC cells) (Homo sapiens (Human))	> 7.00
COc1cnc2c(Oc3ccc(NC(=O)c4c(C)c(C(C)=O)c(C)n(-c5ccc(F)cc5)c4=O)cc3F)ccnc2c1 [Compound 323]	KDR (phospho-KDR, VEGF165-stimulated HUVEC cells) (Homo sapiens (Human))	6.52 to 7.00
C=C(C)c1cnc2c(Oc3ccc(NC(=O)c4cnc(C)n(-c5ccc(F)cc5)c4=O)cc3)ccnc2c1 [Compound 462]	KDR (phospho-KDR, VEGF165-stimulated HUVEC cells) (Homo sapiens (Human))	> 7.00
Cc1ccc(C(=O)Nc2ccc(Oc3ccnc4ccc(OCCN5CCOCC5)nc34)c(F)c2)c(=O)n1-c1ccc(F)cc1 [Compound 351]	KDR (phospho-KDR, VEGF165-stimulated HUVEC cells) (Homo sapiens (Human))	> 7.00
COc1ccc2nccc(Oc3ccc(NC(=O)c4c(C)nc(C)c(-c5ccc(F)cc5C)c4O)cc3F)c2n1 [Compound 70]	KDR (phospho-KDR, VEGF165-stimulated HUVEC cells) (Homo sapiens (Human))	> 7.00
COc1cnc2c(Oc3ccc(NC(=O)c4c(C)nc(C)c(-c5ccc(F)c(F)c5)c4O)cc3F)ccnc2c1 [Compound 687]	KDR (phospho-KDR, VEGF165-stimulated HUVEC cells) (Homo sapiens (Human))	> 7.00

List the reported pIC50 of each compound below.
1. COc1cnc2c(Oc3ccc(NC(=O)c4c(C)ncc(-c5ccc(F)cc5OC)c4O)cc3F)ccnc2c1 [Compound 793]
2. COc1ccc2nccc(Oc3ccc(NC(=O)c4c(C)cc(C)n(-c5ccc(F)cc5C)c4=O)cc3F)c2n1 [Compound 296]
3. CCOc1c(C(=O)Nc2ccc(Oc3ccnc4cc(OC)c(OC)nc34)c(F)c2)c(=O)c(-c2ccc(F)cc2)c(C)n1C [Compound 369]
4. CCn1cc(C(=O)Nc2ccc(Oc3ccnc4cc(OC)c(OC)nc34)cc2)c(=O)c(-c2ccc(F)cc2)c1C [Compound 168]

1: > 7.00; 2: > 7.00; 3: > 7.00; 4: 6.52 to 7.00
